Biological target: CDK2 (Homo sapiens, UniProt P24941)
Construct: endogenous in cells; host or cells: MKN1 cells
Experiment: CDK2 degradation in MKN1 cells (AlphaLISA)
Type: cell-based
Details: 14 h incubation
measurement.label: CDK2 degradation 14 h: Average Dmax %

As a guide, the following entries are already answered.
{"compound": "Cc1cc(S(=O)(=O)C2CC3(CCN(CC4CCN(c5cccc6c5n(C)c(=O)n6C5CCC(=O)NC5=O)CC4)CC3)C2)ccc1Nc1ncc2cc(C(F)F)c(=O)n(C3CCCC3)c2n1 (stereo not shown) [I-86]", "result": "A (A (>75% o))"}
{"compound": "Cc1cc(S(=O)(=O)NC2CCC(CN3CCN(c4ccc(C5CCC(=O)NC5=O)cc4)CC3)CC2)ccc1Nc1ncc(C(F)(F)F)c(N2CCCC(C)(O)C2)n1 (stereo not shown) [I-799]", "result": "A (A (>75% o))"}
{"compound": "Cc1cc(S(=O)(=O)NCCO[C@H]2CC[C@H](CN3CC(c4ccc5c(c4)n(C)c(=O)n5C4CCC(=O)NC4=O)C3)CC2)ccc1Nc1ncc2cc(Cl)c(=O)n(C3CCCC3)c2n1 (stereo partly shown) [I-430]", "result": "A (A (>75% o))"}
{"compound": "Cc1cc(S(=O)(=O)C2CCC3(CC2)CN(CC2CCN(c4ccc5c(c4)n(C)c(=O)n5C4CCC(=O)NC4=O)CC2)C3)ccc1Nc1ncc2cc(Cl)c(=O)n(C3CCCC3)c2n1 (stereo not shown) [I-67]", "result": "A (A (>75% o))"}
{"compound": "Cc1cc(S(=O)(=O)NC2CCN(CC3CCN(c4ccc(C5CCC(=O)NC5=O)cc4F)CC3)CC2F)ccc1Nc1ncc(C(F)(F)F)c(N2CCCC(C)(O)C2)n1 (stereo not shown) [I-1141]", "result": "A (A (>75% o))"}

Looking for the measured CDK2 degradation 14 h: Average Dmax % of Cc1cc(S(=O)(=O)N2CCC3(CCN(c4cccc5c4n(C)c(=O)n5C4CCC(=O)NC4=O)CC3)CC2)ccc1Nc1ncc2cc(Cl)c(=O)n(C(C)C)c2n1 (stereo not shown) [I-380] , can you help?
D (D (<25%))

// lookup CDK2 degradation 14 h: Average Dmax % for CC1(O)CCCN(c2nc(Nc3ccc(S(=O)(=O)N4CCN(CC5CCC(Oc6cccc(C7CCC(=O)NC7=O)c6)CC5)CC4)cc3C(F)F)ncc2C(F)(F)F)C1 (stereo not shown) [I-1043]
D (D (<25%))

Please give the measured CDK2 degradation 14 h: Average Dmax % for this compound: Cc1cc(S(=O)(=O)NC2CC(N3CCN(CC4CCN(c5ccc(Cl)c(NC6CCC(=O)NC6=O)c5)CC4)CC3)C2)ccc1Nc1ncc(C(F)(F)F)c(N2CCCC(C)(O)C2)n1 (stereo not shown) [I-716]
B (B (>50% -75%))
